System: MT4
Experiment: CC50/EC50 ratio of the compound
Type: functional
Can you tell me Selectivity index for the items I'm about to list?
Give only the figure.

What measured Selectivity index goes with CSc1nc(O)cc(C(C)c2c(F)cccc2F)n1 (stereo unspecified) ?
115

CCC(c1cc(O)nc(SC2CCCCC2)n1)c1cccc2ccccc12 (stereo unspecified) ?
94

CCC(c1cc(O)nc(SC(C)C)n1)c1c(F)cccc1F (stereo unspecified) ?
875

CCC(c1ccccc1)c1cc(O)nc(SC(C)C)n1 (stereo unspecified) ?
250

====

Test system: MT4
Test: CC50/EC50 ratio of the compound
Format: functional
Can you tell me Selectivity index for the items I'm about to list?
Give only the figure.

Quick check: Selectivity index on MT4, item CCC(c1cc(O)nc(SC2CCCC2)n1)c1cccc2ccccc12 (stereo unspecified) ?
17

CC(c1ccccc1)c1cc(O)nc(SC2CCCC2)n1 (stereo unspecified) ?
333

CC(c1cc(O)nc(SC2CCCCC2)n1)c1cccc2ccccc12 (stereo unspecified) ?
321.4

CCCCSc1nc(O)c(C)c(C(C)c2c(F)cccc2F)n1 (stereo unspecified) ?
14000

CC(C)Sc1nc(O)cc(C(C)c2c(F)cccc2F)n1 (stereo unspecified) ?
3340

====

Test system: MT4
Assay: CC50/EC50 ratio of the compound
Assay type: functional
Endpoint: Selectivity index

What measured Selectivity index goes with CC(c1cc(O)nc(SC2CCCCC2)n1)c1c(Cl)cccc1Cl (stereo unspecified) ?
>69

Cc1c(Cc2c(F)cccc2F)nc(SC(C)C)[nH]c1=O ?
>4000

CC(c1cc(O)nc(SC2CCCCC2)n1)c1c(F)cccc1F (stereo unspecified) ?
>1250

Cc1c(O)nc(SC2CCCCC2)nc1C(C)c1c(F)cccc1F (stereo unspecified) ?
>11111

Cc1c(O)nc(SCC(C)C)nc1C(C)c1c(F)cccc1F (stereo unspecified) ?
>20000

CC(C)Sc1nc(O)cc(C(C)c2ccccc2)n1 (stereo unspecified) ?
>222

====

Test system: MT4
Assay: CC50/EC50 ratio of the compound
Assay type: functional
Endpoint: Selectivity index

What measured Selectivity index goes with CC(c1cc(O)nc(SC2CCCC2)n1)c1cccc2ccccc12 (stereo not given) ?
186

CCC(C)Sc1nc(O)cc(C(C)c2c(F)cccc2F)n1 (stereo not given) ?
>6666

Cc1c(Cc2c(F)cccc2F)nc(SC2CCCC2)[nH]c1=O ?
>2500

CSc1nc(O)c(C)c(C(C)c2c(F)cccc2F)n1 (stereo not given) ?
>5000

CCC(C)Sc1nc(O)cc(C(CC)c2ccccc2)n1 (stereo not given) ?
>500

====

Tested on: MT4
Experiment: CC50/EC50 ratio of the compound
Type: functional
Endpoint: Selectivity index

What measured Selectivity index goes with O=c1cc(Cc2c(F)cccc2F)nc(SC2CCCC2)[nH]1 ?
>2500

CCC(c1ccccc1)c1cc(O)nc(SC2CCCC2)n1 (stereo unspecified) ?
>200

CCC(c1ccccc1)c1cc(O)nc(SC2CCCCC2)n1 (stereo unspecified) ?
>154

Cc1c(C(C)c2c(F)cccc2F)nc(SC2CCCC2)[nH]c1=O (stereo in doubt; [-]3w) ?
>286

CC(C)CSc1nc(O)cc(C(C)c2c(F)cccc2F)n1 (stereo unspecified) ?
>4000

CCC(c1cc(O)nc(SC2CCCCC2)n1)c1c(Cl)cccc1Cl (stereo unspecified) ?
>55.5
